These data points were gathered from patent US12247004B2.

- System: bacteria (ATCC reference strains)
- Assay Text: Antibacterial activity, MIC by broth micro-dilution (CLSI)
- Condition Summary: Enterobacter cloacae, read-out: Antibacterial Activity (MIC), B = Enterobacter cloacae B1966
Recorded MIC for the following compounds
State the answer as a number, implicitly in mg/L.

[in] MIC of `Cc1ccsc1[S@@](N)(=O)=NC(=O)[C@@H](N)CC(C)C.Cl` on bacteria (ATCC reference strains)?
[out] 16

[in] MIC of `CC(C)C[C@H](N)C(=O)N=[S@@](N)(=O)c1ccc(Cl)s1` on bacteria (ATCC reference strains)?
[out] 32

----------
- Tested Target: Valyl-tRNA synthetase (ValRS) (Escherichia coli (strain K12))
- Sequence (P07118 whole entry): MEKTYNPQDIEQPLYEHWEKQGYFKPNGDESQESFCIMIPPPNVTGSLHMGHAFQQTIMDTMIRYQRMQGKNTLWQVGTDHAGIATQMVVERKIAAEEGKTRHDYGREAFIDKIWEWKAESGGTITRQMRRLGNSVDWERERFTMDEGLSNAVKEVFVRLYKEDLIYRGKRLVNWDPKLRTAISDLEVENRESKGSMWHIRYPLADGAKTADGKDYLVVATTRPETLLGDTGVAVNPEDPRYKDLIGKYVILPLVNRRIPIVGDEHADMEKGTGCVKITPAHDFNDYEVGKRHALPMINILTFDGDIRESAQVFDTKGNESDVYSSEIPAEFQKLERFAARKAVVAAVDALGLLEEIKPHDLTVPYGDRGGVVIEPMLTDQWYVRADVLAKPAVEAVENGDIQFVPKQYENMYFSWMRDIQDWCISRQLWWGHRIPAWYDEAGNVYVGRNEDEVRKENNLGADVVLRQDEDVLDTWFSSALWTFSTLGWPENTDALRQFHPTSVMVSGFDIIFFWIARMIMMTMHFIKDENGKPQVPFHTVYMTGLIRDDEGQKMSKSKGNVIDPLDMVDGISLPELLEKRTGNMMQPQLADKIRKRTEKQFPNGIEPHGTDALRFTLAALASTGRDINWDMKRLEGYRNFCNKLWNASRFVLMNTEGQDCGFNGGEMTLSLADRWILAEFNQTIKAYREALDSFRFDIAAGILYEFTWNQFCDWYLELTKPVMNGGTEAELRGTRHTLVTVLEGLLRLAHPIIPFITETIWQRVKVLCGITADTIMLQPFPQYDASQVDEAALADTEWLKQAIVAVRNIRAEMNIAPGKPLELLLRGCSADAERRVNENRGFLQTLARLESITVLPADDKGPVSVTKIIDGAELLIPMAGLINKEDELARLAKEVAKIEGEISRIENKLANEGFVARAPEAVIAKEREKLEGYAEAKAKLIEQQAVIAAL
- Assay Text: Valyl-tRNA synthetase enzyme inhibition (AMP-Glo; single point % inhibition at 100 μM and IC50)
- Format: biochemical
Readout Label: IC50 (µM)
State the answer as a number, implicitly in µM.

{"Molecule": "CC(C)[C@H](N)C(=O)N=S(N)(=O)c1cccc2ccccc12 (some centres unmarked) [ANASIA-025]", "Tested Target": "Valyl-tRNA synthetase (ValRS) (Escherichia coli (strain K12))", "IC50, µM": 21.9}

Query molecule follows.
[in] If you can, please state the reported IC50 value of CC(C)[C@H](N)C(=O)N=S(N)(=O)c1cc2sccc2s1 (some centres unmarked) [ANASIA-118] .
[out] 38.6
